B1: TPR t1 (parent)
chain: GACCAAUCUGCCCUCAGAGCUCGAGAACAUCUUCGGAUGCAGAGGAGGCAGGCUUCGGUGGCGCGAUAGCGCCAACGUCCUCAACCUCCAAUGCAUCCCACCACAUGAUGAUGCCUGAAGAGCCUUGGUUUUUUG

- Variants of: B1
- Measurement Notes: polymerase ribozyme fitness, log enrichment relative to wild type (log ratio); higher = more active; in vitro selection for triplet polymerase activity
Could you label it y if measured polymerase ribozyme fitness (log ratio) is -2 or higher, and n otherwise?

* G47C A108G U112A U133A | n
* C20A G120A | y
* U9G G35U A111U | n
* G25U | n
* C4G C72G | y
* U9A G10C C73U C102G C114G C115G | n
* G61A G69C | n
* G48U C56A A105G A111G | n
* U9G C15G U81A U109G G127C | n
* C13A A29G C53U | n
* U106A G110U | y
* C15A U92A U132A | n
* G44A G69C C102A G122A | n
* C72A A100C G120A | y
* C3U C11G A24G C40U C62G | n
* G36C U112A | y
* U21A G39C G77A | y
* C49U U106A U116G G128A | n
* C34A C73A | n
* A6C C40G A95C | n
* C22G A41U G63U U78C C99G | n
* C12U C53U C56U | y

Entry source: the RNAGym collection of RNA variant scans (doi:10.1073/pnas.2313332121)
